Hey, just so you know, these numbers are from PubChem BioAssay (NCATS).

# experiment: qHTS Assay for Lipid Storage Modulators (AID 1519)
# assay conditions: Drosophila S3 cells, BODIPY lipid droplet/cell ratio, laser cytometry; measured here: lipid channel max response; cells loaded with oleic acid
Records with an inconclusive call do not appear.
assay readout: max response (%)
Give bare numbers, in %.

Hello, I would appreciate it if you could give max response for each entry below.
1. O=C(c1csnn1)N1CCC[C@@]2(CCN(c3ccccn3)C2)C1
2. CC(=O)N1CCC2(CCCN(c3ccccn3)C2)CC1
3. COc1ncc2nc(-c3cc(F)cc(F)c3)c(=O)n(-c3ccccc3)c2n1
4. O=c1c(-c2cccs2)nc2cnc(N3CCOCC3)nc2n1Cc1cccs1

1. 10.9
2. 28
3. 11.8
4. 0.532

Could you tell me max response for each of these compounds? They are listed below.
1. COc1ccc(-n2c(=O)c(C)nc3cnc(Oc4ccccc4)nc32)cc1
2. COCCn1c(=O)c(C)nc2cnc(N3CCNCC3)nc21
3. CCNc1ncc2nc(-c3ccc(Cl)cc3)c(=O)n(CCC#N)c2n1
4. COc1cccc(-c2nccc(NCc3cccc(C)c3)n2)c1
5. CC(=O)N1CCC[C@@]2(CCN(c3ccncc3)C2)C1
6. COc1ncc2ncc(=O)n(Cc3cccs3)c2n1
7. CC(=O)N1CCC2(CCN(Cc3cc(C(F)(F)F)cc(C(F)(F)F)c3)CC2)CC1
8. O=c1c(-c2ccc(Cl)cc2)nc2cnc(N3CCOCC3)nc2n1C[C@H]1CCCO1

1. 20.5
2. 6.84
3. 24.2
4. -3.6
5. 14.8
6. 19.6
7. 10.7
8. -3.15

Provide each entry's max response from the list below.
1. CN1CCN(c2cc(-c3ccoc3)ncn2)CC1
2. COCC(=O)N1CCC2(CC1)CCN(C(c1ccccc1)c1ccccc1)CC2
3. N#Cc1ccccc1-c1nc(NCCN2CCOCC2)c2ccccc2n1
4. COc1ccc(NC(=O)N2CC3(CCN(C(=O)c4cccn4C)CC3)C2)cc1
5. CC(C)NC(=O)N1CCCC2(CCN(C(=O)c3ccncc3)CC2)C1
6. CNc1ncnc2ccc(-c3ccccc3C)cc12
7. COc1cccc(Nc2ncc3nc(C)c(=O)n(Cc4cccs4)c3n2)c1
8. COCC(=O)N1CCC[C@@]2(CCN(Cc3ccccc3)C2)C1

[27.8, 5.9, 18.6, 21.6, 22, -15.2, -8.07, 13.4]

Field: max response. Fill in for each record below.
1. Cn1cc(-c2nc3cnc(Oc4ccccc4)nc3n(C3CC3)c2=O)c2ccccc21
2. O=S(=O)(c1ccccc1)N1CCC[C@@]2(CCN(c3ccccc3)C2)C1
3. CN(Cc1ccco1)c1ncnc2ccc(-c3cccc(C#N)c3)cc12

[0.0554, -9.53, 2.39]

---

# system: Dual specificity protein kinase CLK4 (Homo sapiens)
# experiment: qHTS Assay for Inhibitors of CDC-like Kinase 4 (ADP-Glo Assay) (AID 1771); further: nearly all actives have a fitted effect of over 70% in size
# assay conditions: recombinant CLK4, ADP-Glo luminescence; series mostly up to 80 µM
Inconclusive results are not listed. The source made the active and inactive calls. Calls come from the whole dose curve; as a rule, active = well fitted inhibition curve with a large enough effect; inconclusive = small, poorly fitted or top-dose-only effect; inactive = flat fitted curve, though single readings scatter.
Thanks in advance; please answer with one of these: active, inactive

item_smiles=O=c1c(-c2ccc(F)cc2)nc2cnc(Oc3cccc(Cl)c3)nc2n1C1CC1 system="Dual specificity protein kinase CLK4 (Homo sapiens)" assigned_category=inactive
item_smiles=O=c1c(-c2ccc(F)cc2)nc2cnc(N3CCOCC3)nc2n1Cc1cccs1 system="Dual specificity protein kinase CLK4 (Homo sapiens)" assigned_category=inactive
item_smiles=Clc1ccccc1-c1ccc2ncnc(NCc3cccnc3)c2c1 system="Dual specificity protein kinase CLK4 (Homo sapiens)" assigned_category=active

Could you check what this test reported for COCCn1c(=O)c(C)nc2cnc(N(C)C)nc21 ?
inactive

What did the test return for CN1CCN(c2ncc3nc(-c4cc(F)cc(F)c4)c(=O)n(C4CC4)c3n2)CC1 ?
inactive

Name the outcome recorded for O=c1c(-c2ccc(Cl)cc2)nc2cnc(N3CCOCC3)nc2n1C[C@H]1CCCO1 in the assay.
inactive

Can you look up the reported call for COc1ccc(-n2c(=O)c(-c3ccccc3)nc3cnc(N4CCN(C)CC4)nc32)cc1 for me?
inactive

Please share the test call associated with COc1ccc(-c2nc3cnc(Oc4ccccc4)nc3n(CCC#N)c2=O)cc1 .
inactive

Field: outcome | Entry: CN1CCN(c2ncc3nc(-c4ccc(Cl)cc4)c(=O)n(Cc4cccs4)c3n2)CC1
inactive

So what was the verdict on FC(F)(F)c1ccccc1-c1nc(NCc2cccs2)c2ccccc2n1 in this test?
inactive

Would you mind telling me which call this test gave Cc1nc2cnc(N3CCOCC3)nc2n(Cc2ccc(F)cc2)c1=O ?
inactive
